Test system: U-251
Assay: NCI tumour cell line growth inhibition, 48 h
Structures can show the parent of a compound that is named as a salt. The source made the active and inactive calls. Rule as the data show it: active = GI50 up to about 1.1 µM and inactive = higher.
Please answer using one outcome listed in active, inactive

Worked set:
- compound: "CSC1=NC=CCN1C"
  classification: "inactive"
- compound: "COc1ccc(C2c3cc4c(cc3C(O)C3CCC(=O)N23)OCO4)cc1 (stereo not given)"
  classification: "inactive"

INPUT: Give the logged outcome of this assay for the following compound: `N/C(=N\OC(=O)NC(Cl)=C(Cl)Cl)c1cc(C(F)(F)F)cc(C(F)(F)F)c1`
OUTPUT: inactive

INPUT: Give the logged outcome of this assay for the following compound: CN[C@@H](C)[C@@H](O)c1ccccc1 [PSEUDOEPHEDRINE HYDROCHLORIDE]
OUTPUT: inactive

---

Numbered stars: 1 amine (or outer) side, 2 acyl side, 3 side chain; on linkers, the order of the positions; unused ones are H or OH. Bridge positions count the residues as written; N and C are the ends. Square brackets hold non-standard residues; d marks the D form. Peptide text beside a SMILES is read from it. X58 = COc1c(N[*:1])cccc1C(=O)O[C@H](C(=O)[C@H](C)C(=O)[*:2])C(C)C; X57 = CC(C)C[C@H](C(=O)[*:2])C(C)C(=O)C1CCCN1[*:1]; NMeY = CN[C@@H](Cc1ccc(O)cc1)C(=O)O; Lac = C[C@H](O)C(=O)O
// endpoint GI50 / system HCT-15

Guide cases for GI50, answers given:
- molecule: "COc1cc(CNC(=O)[C@H](Cc2ccc(O)cn2)NC(C)=O)cc(OC)c1"
  GI50: "> 100 µM"
- molecule: "COc1ccc(C[C@H]2C(=O)O[C@H](C)[C@H](NC(=O)[C@@H](CC(C)C)C(C)C(=O)C3CCCN3C(=O)[C@H](C)O)C(=O)Nc3cccc(c3OC)C(=O)O[C@@H](C(C)C)C(=O)[C@H](C)C(=O)N[C@@H](CC(C)C)C(=O)N3CCC[C@H]3C(=O)N2C)cc1 (some centres undefined) (H-[Lac][X57]T[X58]LP[NMeY](Me); ester 3-C)"
  GI50: "> 12.5 µM"
- molecule: "COc1cc2c(cc1OC)C1(c3ccccc3)CN(C2)Cc2cc(OC)c(OC)cc21"
  GI50: "24.3 µM"
- molecule: "O=S(=O)(O)c1cccc2c(/N=N/c3c(O)ccc4ccccc34)cccc12"
  GI50: "> 100 µM"
- molecule: "N=C(N)N/N=C(\\c1ccc(F)cc1)c1ccc(C(F)(F)F)cc1"
  GI50: "0.294 µM"
- molecule: "COC(C)(C)CCc1[nH]c2ccccc2c1CC(=O)NCCc1cncn1C"
  GI50: "> 100 µM"
- molecule: "C/C(=C\\c1ccccc1)C(=O)NCc1ccc(C(=O)NCCc2ccccc2)cc1"
  GI50: "> 100 µM"
- molecule: "O=C(CCc1ccc(O)cc1)NCCc1ccc(O)cc1"
  GI50: "> 100 µM"
- molecule: "CN(c1c(Cl)cccc1Cl)S(=O)(=O)c1ccccc1[N+](=O)[O-]"
  GI50: "> 100 µM"
- molecule: "COC(=O)/C=C/c1ccc2c(c1)CC1(C2)Cc2cc3c(cc2C1=O)CCC3 (centres undefined)"
  GI50: "> 100 µM"

INPUT: Give the measured GI50 for `O=C1N[C@@H]2c3c(Br)sc(Br)c3C(=O)[C@@H]2O1`
OUTPUT: 1.91 µM

INPUT: Give the measured GI50 for CCO[C@@]12CCC3CC4CC[C@@](OCC)(O1)C4C32 (some centres undefined)
OUTPUT: > 100 µM

INPUT: Give the measured GI50 for `Cc1nn(CN2CCN(C)CC2)c(=S)n1/N=C/c1ccc(-c2ccc(Cl)cc2Cl)o1`
OUTPUT: 47.2 µM

INPUT: Give the measured GI50 for `O=c1/c(=C/c2c(O)ccc3ccccc23)sc2nc3ccccc3n12`
OUTPUT: > 100 µM

INPUT: Give the measured GI50 for `Cc1cc(S(=O)(=O)Nc2nc(N)n(-c3cnc4ccccc4n3)n2)c(S)cc1Cl`
OUTPUT: > 100 µM

INPUT: Give the measured GI50 for Cc1ccc(S(=O)(=O)OCC23CCC(C4CC42)C2CC23)cc1 (centres undefined)
OUTPUT: > 100 µM

INPUT: Give the measured GI50 for `N=C(N)c1ccc(/C=C/c2ccc(C(=N)N)cc2)cc1`
OUTPUT: > 100 µM

INPUT: Give the measured GI50 for CC1(C)CCC[C@@]2(C)C1CC[C@@]1(CO1)[C@@H]2/C=C\C(C=O)CC=O (some centres undefined)
OUTPUT: 73.6 µM

INPUT: Give the measured GI50 for `Cc1cc(O)nc2cc3oc4ccccc4c3cc12`
OUTPUT: > 61.2 µM

INPUT: Give the measured GI50 for CC(C)CC(NC(=O)OC(C)(C)C)C(=O)Nc1ccc(Nc2nc(F)nc(-c3c4ccccc4c4n3CCS4)n2)cc1 (centres undefined)
OUTPUT: 16.3 µM

---

The entries below are paired with their reported GI50.
Tested on: RPMI-8226
Test: NCI tumour cell line growth inhibition, 48 h
Calls of active or inactive are those of the source. Rule as the data show it: active = GI50 up to about 1.1 µM and inactive = higher.

Guide cases for GI50, answers given:
- compound: "COC(=O)c1ccccc1C#CCCCOS(C)(=O)=O"
  result_value: "> 10 µM (inactive)"
- compound: "O=C(NCCCCCCNC(=O)n1cc(F)c(=O)[nH]c1=O)NCCCOCCOCCCNC(=O)C(O)C(O)C(O)C(O)CO (stereo not given)"
  result_value: "> 2.5 µM (inactive)"
- compound: "COc1cccc2ccc3c(c12)C(=O)OC31CCc2c(C)cccc21 (stereo not given)"
  result_value: "6.87 µM (inactive)"

INPUT: Retrieve GI50 on RPMI-8226; query `CN(C)CCCNC(=O)c1cc(NC(=O)CCCn2c3ccccc3c3ccccc32)cn1C`
OUTPUT: 17.1 µM (inactive)

INPUT: Retrieve GI50 on RPMI-8226; query `CCNc1ncnc2sc(SCc3ccccc3)nc12`
OUTPUT: 43.3 µM (inactive)

---

System: M19-MEL
Assay: NCI tumour cell line growth inhibition, 48 h
Calls of active or inactive are those of the source. No stated cut-off is given here; in the data, active = GI50 up to about 1.1 µM and inactive = higher.
The entries below are paired with their reported GI50.

Guide cases for GI50, answers given:
- compound: "O=C1OC(CC(=O)c2ccc(Cl)cc2Cl)C(Cl)=C1Cl (stereo not drawn)"
  GI50: "20 µM (inactive)"
- compound: "CCOc1ccccc1NC(=O)CC(C(=O)OC)C(=O)C(=O)OC (stereo not drawn)"
  GI50: "> 100 µM (inactive)"

INPUT: Give the measured GI50 for `CC12C/C(=C\c3ccccc3)C(=O)C3C1CCCC32`
OUTPUT: 58.6 µM (inactive)

---

System: SR
Experiment: NCI tumour cell line growth inhibition, 48 h
The source made the active and inactive calls. No stated cut-off is given here; in the data, active = GI50 up to about 1.1 µM and inactive = higher. Non-standard residues stand in square brackets, D forms with d. Residues, ends and D or L forms follow the SMILES beside them. *: point of attachment. Phe(4-NO2) = N[CH](Cc1ccc([N+](=O)[O-])cc1)C(=O)O; Boc = CC(C)(C)OC(=O)*
metric_name: GI50

- compound: "CC(C)(C)OC/C=C1\\C(=O)O[C@H]2C[C@@H](O[Si](C)(C)C(C)(C)C)C[C@@H]12"
  GI50: "37.3 µM (inactive)"
- compound: "CCCCCCCCC/C=C1/CC(CO)(COC(=O)c2ccccc2)OC1=O (stereo not given)"
  GI50: "17.9 µM (inactive)"
- compound: "CCOC(=O)C(NC(=O)CC)(Nc1cc(C)on1)C(F)(F)F (stereo not given)"
  GI50: "> 100 µM (inactive)"

INPUT: Give the measured GI50 for `Fc1c(F)c(C(F)(F)F)c(F)c(F)c1N/N=C\c1c[nH]c2ccccc12`
OUTPUT: 2.75 µM (inactive)

INPUT: Give the measured GI50 for COC(=O)CCC(NC(=O)OC(C)(C)C)C(=O)NC(Cc1ccc([N+](=O)[O-])cc1)C(=O)NC(CCC(=O)OC)C(=O)OC (stereo not given) (Boc-Glu(OMe)-[Phe(4-NO2)]-Glu(OMe)-OMe; configuration not given here)
OUTPUT: 28.8 µM (inactive)

---

System: OVCAR-3
Experiment: NCI tumour cell line growth inhibition, 48 h
Active and inactive are the calls of the source. Cut-off read from the data, not from the text of the source: active = GI50 up to about 1.1 µM and inactive = higher.
metric_name: GI50

Guide cases for GI50, answers given:
- molecule: "O=C(Nc1ccc(C(F)(F)F)cc1[N+](=O)[O-])c1cccnc1"
  tgt: "OVCAR-3"
  GI50: "2.41 µM (inactive)"
- molecule: "N#Cc1sc2c(c1OC(=O)c1ccc(C(F)(F)F)cc1)c(=O)n(-c1ccccc1)c(=S)n2-c1ccccc1"
  tgt: "OVCAR-3"
  GI50: "19.5 µM (inactive)"
- molecule: "CO[C@]12C[C@@H](CNC(=O)c3cc(Br)c[nH]3)O[C@H]1NC(=O)N2"
  tgt: "OVCAR-3"
  GI50: "> 100 µM (inactive)"

INPUT: Retrieve GI50 on OVCAR-3; query CC(Br)CN1CCOCC1 (stereo not drawn)
OUTPUT: > 100 µM (inactive)

INPUT: Retrieve GI50 on OVCAR-3; query `CC(=O)NNc1nc(C)c(C(=O)/C=C/c2ccc(NC(C)=O)cc2)s1`
OUTPUT: > 100 µM (inactive)

INPUT: Retrieve GI50 on OVCAR-3; query `O=c1[nH]nc(Cc2ccccc2)n1/N=C/c1cccnc1`
OUTPUT: > 100 µM (inactive)

INPUT: Retrieve GI50 on OVCAR-3; query `COc1ccc(-c2cc(=O)c3ccc(O)cc3o2)cc1OC`
OUTPUT: 57.3 µM (inactive)

INPUT: Retrieve GI50 on OVCAR-3; query `Cc1nnc2sc(Cl)nn12`
OUTPUT: 19 µM (inactive)

INPUT: Retrieve GI50 on OVCAR-3; query `OB(O)c1ccccc1C#Cc1ccccc1B(O)O`
OUTPUT: 17.1 µM (inactive)
